Where do the numbers come from? From ChEMBL document CHEMBL1165974.

# Tested on: HeLa
# Method notes: Cytostatic activity against human HeLa cells after 5 days by Coulter counting analysis
# Type: functional, cell-based
# Experimental parameters: 120 h
Readout label: IC50 (µM)

| Sample smiles | Number |
| --- | --- |
| O=c1c2cn(-c3ccc(O)cc3)nc2c2ccc(O)cc2n1O | 38 |
| O=c1c2cn(-c3ccc(O)cc3)nc2c2ccccc2n1O | 8.9 |
| O=Cc1cn(-c2ccc(O)cc2)nc1-c1ccc(O)c(O)c1 | 39 |
| O=Cc1cn(-c2ccc(O)cc2)nc1-c1ccc(O)cc1 | 37 |

(I) O=c1c2cn(-c3ccc(O)cc3)nc2c2cc(O)ccc2n1O
(II) O=Cc1cn(-c2ccc(O)cc2)nc1-c1ccccc1
Query: Which of these two has the smaller recorded IC50: I or II ? Could you answer with the label of the item you picked?
Result: I
